Test system: HepG2
Assay: GSK_TCMDC: Percent inhibition of human HepG2 cell line. Test compounds present at 10uM.
Format: functional
Known Inhibition of a selection of molecules
Value expressed in %; do not type the unit.

Sample records with Inhibition:
CC(=NNC(=N)N)c1ccc2c(c1)Cc1ccccc1-2.Cl    44
Nc1c(Cl)cc(C(O)CNCCCCCOCCCc2ccc3ncccc3c2)cc1Cl.O=C(O)/C=C/C(=O)O (centres undefined)    24
COc1ccc(Cl)cc1NC(=O)Nc1ccnc2ccccc12    13
Cc1cccc2nc(-c3cccc(-c4cccc(CNCCc5ccncc5)c4)c3)[nH]c12.O=C(O)C(F)(F)F    20
Cl.c1ccc(Oc2ccc(Nc3ccnc(Nc4ccc5cn[nH]c5c4)n3)cc2)cc1    6
COc1cc(NC(=O)c2nn(CCCN3CCC(N4CCCC4)CC3)cc2-c2ccc(Cl)c(Cl)c2)cc(OC)c1OC    76

Query: Answer with reported Inhibition of `OC1(c2ccc(Br)cc2)CCN(C2CCN(Cc3ccccc3)CC2)CC1`
Result: 8

Query: Answer with reported Inhibition of `C#CCCC(=O)Nc1cccc(-c2cccc(-c3nc4cc(C(F)(F)F)ccc4[nH]3)c2)c1`
Result: 14

Query: Answer with reported Inhibition of `Cc1ccc(O)c(Nc2c3c(c(C#N)c4nc5ccccc5n24)CCC3)c1`
Result: 7

----------
Tested on: Plasmodium falciparum
Assay: GSK_TCMDC: Inhibition of Plasmodium falciparum Dd2 in whole red blood cells, using parasite LDH activity as an index of growth. Test compounds present at 2uM
Type: functional
Known Inhibition of a selection of compounds
Note: state the figure and append the unit.

Sample records with Inhibition:
Cc1cc(-c2ccc(NC(=O)Nc3ccc4nccc(N5CCN(C)CC5)c4c3)cc2C)cc(C)n1.Cl    76%
COc1ccc(N2CCN(CCCCNC(=O)c3ccc(NC(=O)c4ccc(Cl)c(Cl)c4)cc3)CC2)c(OC)c1    98%
Cc1cc(=O)c(C2CCC(c3ccc(Cl)cc3)CC2)c(C)[nH]1 (stereo not drawn)    70%
COc1cc(Nc2ccc3cc(S(=O)(=O)N4CCCCC4C)ccc3n2)cc(OC)c1OC (stereo not drawn)    78%
CCOC(=O)c1cccc(NC(=N)Nc2nc(C)cc(NCCc3ccccc3)n2)c1    72%

Query: Fetch value of Inhibition on Plasmodium falciparum for `CCc1ccc(NC(=O)c2ccc(CN3CCCN(CC4CCCCC4)CC3)cc2)cc1.O=C(O)C(F)(F)F` .
Result: 48%

Query: Fetch value of Inhibition on Plasmodium falciparum for `COc1ccc(C(=O)O)cc1OCc1ccccc1` .
Result: 0%

Query: Fetch value of Inhibition on Plasmodium falciparum for `Cc1cc2ncc(C(N)=O)c(Nc3ccc(N4CCOCC4)cc3)c2cc1S(C)(=O)=O.Cl` .
Result: 96%

Query: Fetch value of Inhibition on Plasmodium falciparum for `Cc1sc2nc(CN3CCCC3)nc(-n3c(NCCO)nc4ccccc43)c2c1C` .
Result: 11%

Query: Fetch value of Inhibition on Plasmodium falciparum for `CCN(CC)/C(=N\C(=N)NCCCCCCNC(=N)/N=C(\Nc1ccc(Cl)cc1)N(CC)CC)Nc1ccc(Cl)cc1` .
Result: 96%

Query: Fetch value of Inhibition on Plasmodium falciparum for `Nc1nc2c(ncn2COC(COCc2ccccc2)COCc2ccccc2)c(=O)[nH]1.Nc1nc2ncn(COC(COCc3ccccc3)COCc3ccccc3)c2c(=O)[nH]1` .
Result: 57%

Query: Fetch value of Inhibition on Plasmodium falciparum for `CN(C)CCCOc1ccccc1CN1CC[C@H](NC(=O)c2ccc(Cl)c(Cl)c2)C1.O=C(O)C(F)(F)F` .
Result: 54%

Query: Fetch value of Inhibition on Plasmodium falciparum for `O=C(NCc1cccc(C(F)(F)F)c1)c1ccc(-c2nc3cc(F)c(F)cc3[nH]2)cc1` .
Result: 7%

Query: Fetch value of Inhibition on Plasmodium falciparum for `O=C(Nc1cccc(CN2CCCN(Cc3ccc(O)cc3)CC2)c1)c1cc2ccccc2s1.O=C(O)C(F)(F)F` .
Result: 90%

Query: Fetch value of Inhibition on Plasmodium falciparum for `Cc1nc(-c2ccc(-c3ccc(C(=O)Nc4ccc(C(C)C)c(OCCN(C)C)c4)cc3)c(C)c2)no1.O=C(O)C(=O)O` .
Result: 45%

Query: Fetch value of Inhibition on Plasmodium falciparum for `COc1cc(C(=O)Nc2ccc3nc(N4CCN(C)CC4)cc(C)c3c2)cc(OC)c1OC` .
Result: 79%

Query: Fetch value of Inhibition on Plasmodium falciparum for `Br.CC(C)(C)c1ccccc1OCCCON1C(=N)N=C(N)NC1(C)C` .
Result: 98%

Query: Fetch value of Inhibition on Plasmodium falciparum for `CC(C)C(=O)n1ncc2c3c(N)nc(N)nc3ccc21` .
Result: 3%

----------
Test system: Plasmodium falciparum
Test: GSK_TCMDC: Inhibition of Plasmodium falciparum Dd2 in whole red blood cells, using parasite LDH activity as an index of growth. Test compounds present at 2uM
Assay type: functional
Known Inhibition of a selection of compounds
Value expressed in %; do not type the unit.

Sample records with Inhibition:
Fc1ccc(-c2cncc(Nc3ccncc3)n2)cc1    11
N#Cc1ccc(CN2CCC(Oc3ccc(NC(=O)c4cccs4)cc3Cl)CC2)cc1.O=C(O)C(F)(F)F    96
Cc1ccc(C)c2sc(N(CCCn3ccnc3)C(=O)C=Cc3cccs3)nc12.Cl    93
O=C(Nc1ccc(Br)cc1)N1CCC(n2c(-c3ccccc3)nc3cccnc32)CC1    86
COc1cc(C(=O)NC2CC(C)(C)N(C)C(C)(C)C2)ccc1-c1nc2cc(Cl)c(Cl)cc2[nH]1    99

Query: Fetch value of Inhibition on Plasmodium falciparum for `Cl.c1ccc(Oc2ccc(Nc3ccnc(Nc4ccc5cn[nH]c5c4)n3)cc2)cc1` .
Result: 33

Query: Fetch value of Inhibition on Plasmodium falciparum for `Nc1ncc(-c2cc3ccccc3o2)c(N)n1` .
Result: 2

Query: Fetch value of Inhibition on Plasmodium falciparum for `COc1ccc(O)c(-c2sc(N=C(N)N)nc2-c2ccccc2)c1` .
Result: 96

Query: Fetch value of Inhibition on Plasmodium falciparum for `CCN1CCc2c1cc(C(=O)N[C@@H](Cc1ccccc1)[C@H](O)CNC(C)(C)c1cccc(C(F)(F)F)c1)cc2N1CCCCS1(=O)=O` .
Result: 99

Query: Fetch value of Inhibition on Plasmodium falciparum for `CCc1c[nH]c2c(N3CCCCC3=O)cc(C(=O)N[C@@H](Cc3ccccc3)[C@H](O)CNCc3cccc(OC)c3)cc12.O=CO` .
Result: 99

Query: Fetch value of Inhibition on Plasmodium falciparum for `CN(C)CCOc1ccc(-c2cc(-c3ccncc3)c(-c3ccc(Cl)c(O)c3)o2)cc1.Cl` .
Result: 93

Query: Fetch value of Inhibition on Plasmodium falciparum for `COc1ccc(-c2cnc3ccc(NCCCO)nn23)cc1OC` .
Result: 90

Query: Fetch value of Inhibition on Plasmodium falciparum for `CC(O)C(=O)O.CCOc1ccc2nc3cc(N)ccc3c(N)c2c1` .
Result: 70

Query: Fetch value of Inhibition on Plasmodium falciparum for `O=C(/C=C/c1ccc(Cl)c(Cl)c1)NCCCCCN1CCC(c2c[nH]c3ccc(O)cc23)CC1` .
Result: 0

Query: Fetch value of Inhibition on Plasmodium falciparum for `CCOC(=O)C(C)(C)Oc1ccc(CN(Cc2ccc(CC(C)C)cc2)C(=O)Nc2ccc(F)cc2F)c(OC)c1` .
Result: 96

Query: Fetch value of Inhibition on Plasmodium falciparum for NC1CCCN(Cc2ccc(-c3ccc(-c4nc5cc(F)ccc5[nH]4)s3)cc2)C1.O=C(O)C(F)(F)F (centres undefined) .
Result: 98

Query: Fetch value of Inhibition on Plasmodium falciparum for `Cc1cccc2nc(-c3ccc(-c4ccc(CNCc5ccc(S(C)(=O)=O)cc5)cc4)cc3)[nH]c12.O=C(O)C(F)(F)F` .
Result: 38

Query: Fetch value of Inhibition on Plasmodium falciparum for `Cc1cc(C)n2nc(C(=O)Nc3cc(C(F)(F)F)ccc3N3CCOCC3)nc2n1` .
Result: 91

Query: Fetch value of Inhibition on Plasmodium falciparum for O=C(NC1CCN(Cc2ccccc2O)C1)c1ccc(-c2ccccc2)cc1.O=C(O)C(F)(F)F (centres undefined) .
Result: 25

----------
Tested on: Plasmodium falciparum
Experiment: GSK_TCMDC: Inhibition of Plasmodium falciparum 3D7 in whole red blood cells, using parasite LDH activity as an index of growth. Test compounds present at 2uM
Format: functional
MEASURED_ENDPOINT: Inhibition (%)
Value expressed in %; do not type the unit.

Br.CC1(C)NC(N)=NC(=N)N1OCCCNC(=O)c1ccc([N+](=O)[O-])cc1    92
N=C(N)CCN(Cc1ccc(Cl)cc1)c1ccc(Cl)cc1    96
CN1CCC(C(=O)N(Cc2ccc(-c3ccc(CNCCc4ccc(S(C)(=O)=O)cc4)cn3)cc2)Cc2cccc(F)c2)CC1.O=C(O)C(F)(F)F    98
COc1ccc(-c2cc(C(=O)N3CCc4ccccc43)c3ccccc3n2)cc1OC    85
COc1cc(C=NN=c2cc(C)[nH]c3ccccc23)cc(OC)c1OC    100

Then there is this compound:
Query: Answer with reported Inhibition of `O=C(c1ccc(F)c2ccccc12)N1CCc2cc3nccc(N4CCN5CCC[C@H]5C4)c3cc21`
Result: 90
